Test system: Yap1 mRNA
Assay: Dose-dependent inhibition of human Yap1 in SNU-449 cells (Example 9, RTS36584)
Assay type: cell-based
Settings: 2000.00 nM, free uptake, approximately 48 hours
Experimental: Modified oligonucleotides described in the studies above were tested at various doses in SNU-449 cells. […] After approximately 48 hours, Yap1 mRNA levels were measured as previously described using the Human Yap1 primer-probe set RTS36584. Yap1 mRNA levels were normalized to total RNA content, as measured by RIBOGREEN®. […] IC50s were calculated using a linear regression on a log/linear plot of the data in excel.
outcomeMeasure: % UTC (Yap1 mRNA) (% UTC)
Expressed in % UTC, but write only the number.

% UTC (Yap1 mRNA) measured on 1198398 (G_{ks}^{m}C_{ds}A_{ds}C_{ds}T_{ds}T_{ds}T_{ds}T_{ds}A_{ds}^{m}C_{ds}A_{ds}T_{ks}T_{es}A_{ks}G_{es}G_{k}; cEt, 2'-MOE, 5-methylcytosine, phosphorothioate modifications, as printed in the source, key not given here) [compound 1198398] = 18
